Tested on: UO-31 renal
assay.name: NCI tumour cell line growth inhibition, 48 h
Consider the following compounds; for each one, report its TGI.
Supply the numeric figure in µM, leaving out any unit text.

For Cc1ccc(/C=C/C(=O)c2c([O-])on[n+]2-c2ccccc2)cc1 , what is its reported TGI?
6.24

Try the compound Nc1ccc(Nc2nc(F)nc(-c3c4ccccc4c4n3CCS4)n2)cc1
22.2

Try the compound COc1cc(-c2[nH]ccc2Cl)oc1C1=C2N=C3C=C2C(C(C)C)C1CCCCCCCC3 (stereo not given)
2.55

---

Please respond with reported GI50 for every item in the list.
System: OVCAR-3 ovarian
assay.name: NCI tumour cell line growth inhibition, 48 h

Consider the molecule shown here: COc1ccc(O)c(C(=O)c2ccc(C(=O)O[C@@H]3CCCNC[C@H]3NC(=O)c3ccncc3)cc2)c1F What is its recorded GI50?
961 nM

Entry to check: COc1ccc(-c2n[nH]nc2-c2csc3ccccc23)cc1OC
1940 nM

Next molecule: CCC[CH2][Sn]([CH2]CCC)([O]C(=O)c1cccc(F)c1)[O]C(=O)c1cccc(F)c1
956 nM

Follow-up item: CN1CCN(c2ccc3c4c(cccc24)C(=O)N(CCN2CCN(CCCN4CCN(CCN5C(=O)c6cccc7c(N8CCN(C)CC8)ccc(c67)C5=O)CC4)CC2)C3=O)CC1
8200 nM

Then what about the molecule O=C1/C(=C/c2ccccc2Cl)N=C(c2ccccc2)N1Cc1ccco1 ?
26900 nM

Okay, and O=C1c2ccccc2C(=O)N1c1ccc(S(=O)(=O)Nc2ncccn2)cc1 ?
> 100000 nM

Same lookup for COc1cc(CSc2nc3ccc(C)cc3c(=O)n2Cc2ccccc2)cc(OC)c1OC , please.
956 nM

---

Test system: PC-3 prostate
assay.name: NCI tumour cell line growth inhibition, 48 h
measured.property: TGI

Requested read-out: TGI. Entry: O=C1/C(=C/c2ccccc2Cl)N=C(c2ccccc2)N1Cc1ccco1
> 100 µM

// query: CCOP(=O)(/C=C\n1cnc2c(=O)n(C(C)=O)c(N)nc21)OCC
> 100 µM

Entry COCCOC(=O)C1=C(C)NC2=C(C(=O)CC(c3ccccc3OC)C2)C1c1cccc(O)c1 (stereo unspecified) please
> 95.2 µM

Could you do the same for CCCNC(=S)N/N=C/c1cccc(C)n1 , please?
> 100 µM

Similarly, OCCN(CCO)c1ccc2c(C(F)(F)F)cc(C(F)(F)F)nc2n1 ?
> 100 µM

What do you have for CC(=O)Nc1ncc(Sc2ccccc2C(=O)O)s1 ?
> 100 µM

---

Tested on: IGROV1 ovarian
assay.name: NCI tumour cell line growth inhibition, 48 h; in the data active means GI50 below about 0.43 µM; inactive means the rest
Please state which outcome applies, choosing from TRUE = active, FALSE = inactive

// return assay outcome for COC(=O)CCC(=O)c1c(C)[nH]c(/C=C2\N=C(c3ccc[nH]3)C=C2OC)c1C
TRUE

Now consider CC1(C)N=C(N)N=C(N)N1c1ccc(F)c(C(F)(F)F)c1 and answer again.
FALSE

Try this compound next: CN1C(=O)CNC(=O)[C@H](NC(=O)c2nc3ccccc3cc2O)CSSC[C@H]1C(=O)NCCc1nc2ccccc2cc1O
FALSE

What do you have for COCCOC(=O)C1=C(C)NC2=C(C(=O)CC(c3ccccc3OC)C2)C1c1cccc(O)c1 (configuration not stated) ?
FALSE

Another compound: COc1ccc(O)c(C(=O)c2ccc(C(=O)O[C@@H]3CCCNC[C@H]3NC(=O)c3ccncc3)cc2)c1F
FALSE

Next entry: C#C[C@]1(O)CC[C@H]2[C@@H]3CC=C4c5sc(N=C(N)N)nc5CC[C@]4(C)[C@H]3CC[C@@]21C
FALSE

Subsequent entry: CCN(CC)c1ccc2c(c1)Oc1nc(N)c(C#N)c(N)c1C2Sc1ccc(SC)cc1 (configuration not stated)
FALSE

// provenance: PubChem BioAssay (NCI)
